# targetEntity: T1, human insulin-like growth factor binding protein 4 (IBP4) (human, UniProt P22692 22-258)
# T1 construct: also called IBP4 protein; IGFBP4
# T1 sequence: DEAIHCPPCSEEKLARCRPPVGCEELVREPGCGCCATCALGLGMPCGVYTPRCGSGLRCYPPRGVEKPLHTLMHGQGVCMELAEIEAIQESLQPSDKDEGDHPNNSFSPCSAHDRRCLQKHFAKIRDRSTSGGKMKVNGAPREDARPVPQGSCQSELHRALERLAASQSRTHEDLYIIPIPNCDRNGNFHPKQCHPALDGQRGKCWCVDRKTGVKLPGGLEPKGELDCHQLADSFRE
# assay: SPR, format and IBP4 form not stated
pKd: −log10 of the molar value.
measure: pKd

binder: anti-IBP4 antibody 7G11.H4 (antibody, mouse IgG1, kappa, V domains shown, Mouse hybridoma mAb raised against FL IBP4; also called IBP4-7G11.H4) VH: QVQLQQSGAELVRPGASVTLSCKASGYTFTDYEMHWVRQTPVHGLEWIGAIDTETGGPAYNQKFKGKAILTADKSSSTAYMELRSLTSEDSAVYFCTRARGSRSVYYFDNWGQGTTLTVSS VL: DIVMTQSQKFMSTSVGDRVSVTCKASQNVDTNIAWYQQKPGHSPKALIYSASYRYSGVPDRFTGSGSGTDFTLTIGNVQSEDLADYFCQQYDTYPLTFGSGTKLEIKR
measure: pKd
recordedMeasurement: 8.55
--
binder: anti-IBP4 antibody 1H9.B6 (antibody, mouse IgG1, kappa, V domains shown, Mouse hybridoma mAb raised against FL IBP4; also called IBP4-1H9.B6) VH: EVQLQQSGPELVKPGASVKISCKTSGYTFTDYYMNWVKQSHGKSLEWIGDINPNNGGAGYNQKFKGKATLTVDKSSSTAYMELRSLTSEDSAVYYCARWGWDRYFDYWGQGTTLTVSS VL: DIVMTQSQKFMSTSVGDRVSVTCKASQNVGIDVAWYQQKPGQSPKALIYSASYRSSGVPDRFTGSGSGTDFTLTINNVQSEDLAEYFCQQYNSYPLAFGSGTKLEIKR
measure: pKd
recordedMeasurement: 8.82
--
binder: anti-IBP4 antibody 5C11.A7 (antibody, mouse IgG1, kappa, V domains shown, Mouse hybridoma mAb raised against FL IBP4; also called IBP4-5C11.A7) VH: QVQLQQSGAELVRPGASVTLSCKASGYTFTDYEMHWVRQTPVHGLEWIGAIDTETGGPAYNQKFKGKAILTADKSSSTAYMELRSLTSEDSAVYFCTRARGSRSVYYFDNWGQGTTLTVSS VL: DIVMTQSQKFMSTSVGDRVSVTCKASQNVGTNVAWYQQKPGHSPKVLIYSASYRHSGVPDRFTGSGSGTDFTLTIGNVQSEDLADYFCQQYDTYPLTFGSGTKLEIKR
measure: pKd
recordedMeasurement: 8.80
--
binder: anti-IBP4 antibody 3D4.E9 (antibody, mouse IgG2b, kappa, V domains shown, Mouse hybridoma mAb raised against FL IBP4; also called IBP4-3D4.E9) VH: QVQLQQSGAELVRPGASVTLSCKASGYTFTDYEMHWVKQTPVHGLEWIGAIDPETGGAAYNQKFKGKAILTADKSSSTAYMELRSLTSEDSAVYYCTRARGSSSVYYFDYWGQGTTLTVSS VL: DIVMTQSQKFMSTSVGDRVSVTCKASQNVGTNVAWYQQKPGQSPKALIYSTSYRYSGVPDRFTGSRSGTDFILTISNVQSEDLAEYFCQQYDSYPLTFGSGTKLEIKR
measure: pKd
recordedMeasurement: 8.10
